Test: MRT value at a dose of 10 mg/kg intravenous administration in mice.
Type: ADME, organism-based
Parameters: dose 10 mg/kg, route intravenous
Conditions: mouse, in vivo
propertyLabel: MRT (h)
Write the value in h as a bare number.

# MRT (compound: `CC(C)(C)c1cnc(CSc2cnc(NC(=O)Cc3ccc(CNC(CO)CO)cc3)s2)o1` ) is 1.8

###

Test system: M109
Assay: Inhibition of M109 mouse lung carcinoma cell proliferation
Type: functional, cell-based
Overview of reported IC50 across a group of molecules:

Take a look at these entries with their results.
CCc1cnc(CSc2cnc(NC(=O)Cc3cccnc3)s2)o1 :: 2100 nM
CN1CC[C@H](c2c(O)cc(O)c3c(=O)cc(-c4ccccc4Cl)oc23)[C@H](O)C1 :: 80 nM

Attention now shifts to the item below.
Entry `CCc1cnc(CSc2cnc(NC(C)=O)s2)o1` : IC50 on M109 = 2100 nM
